Origin of measurements: patent US20190248902A1

Biological target: T1, human ASGR-1 (human, UniProt P07306 1-291)
T1 construct: Stably expressed on CHO-S cells (CHO-S:huASGR-1); The method text says human or mouse ASGR-1 cells were used; also called huASGR-1; hASGR-1
T1 sequence: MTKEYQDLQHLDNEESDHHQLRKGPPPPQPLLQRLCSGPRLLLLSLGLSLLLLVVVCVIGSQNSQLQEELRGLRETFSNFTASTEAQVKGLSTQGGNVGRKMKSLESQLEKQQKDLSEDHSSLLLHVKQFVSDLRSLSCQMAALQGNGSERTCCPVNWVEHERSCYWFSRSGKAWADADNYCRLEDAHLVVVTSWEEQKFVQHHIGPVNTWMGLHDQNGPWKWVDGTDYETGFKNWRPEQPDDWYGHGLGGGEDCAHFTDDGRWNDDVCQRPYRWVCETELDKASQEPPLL
Assay: FACS ligand blocking on CHO-S ASGR-1 cells; competitor biotinylated asialofetuin
measured quantity: pIC50
Formally, pIC50 is defined as -log10 of the concentration c, with c in mol/L.

Answered examples (9):
>  <binder>
56E5 (antibody, V domains shown) VH: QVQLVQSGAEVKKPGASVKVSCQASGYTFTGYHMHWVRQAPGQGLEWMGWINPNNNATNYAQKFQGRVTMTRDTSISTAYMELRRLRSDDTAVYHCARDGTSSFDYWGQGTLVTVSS VL: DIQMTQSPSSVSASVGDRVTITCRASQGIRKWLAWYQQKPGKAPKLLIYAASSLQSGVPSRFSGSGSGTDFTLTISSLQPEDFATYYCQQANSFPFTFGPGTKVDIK

>  <pIC50>
7.64

$$$$
>  <binder>
218G4 (antibody, V domains shown) VH: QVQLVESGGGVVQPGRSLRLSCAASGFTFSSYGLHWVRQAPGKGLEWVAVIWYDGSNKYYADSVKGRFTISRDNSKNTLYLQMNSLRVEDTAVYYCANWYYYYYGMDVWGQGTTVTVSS VL: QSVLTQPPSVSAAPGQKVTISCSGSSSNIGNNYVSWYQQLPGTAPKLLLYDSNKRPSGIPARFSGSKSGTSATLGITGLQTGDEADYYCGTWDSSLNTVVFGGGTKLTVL

>  <pIC50>
7.55

$$$$
>  <binder>
25A4 (antibody, V domains shown) VH: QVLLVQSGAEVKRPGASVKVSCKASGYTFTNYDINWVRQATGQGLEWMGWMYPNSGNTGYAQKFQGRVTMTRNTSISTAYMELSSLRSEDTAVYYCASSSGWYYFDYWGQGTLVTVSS VL: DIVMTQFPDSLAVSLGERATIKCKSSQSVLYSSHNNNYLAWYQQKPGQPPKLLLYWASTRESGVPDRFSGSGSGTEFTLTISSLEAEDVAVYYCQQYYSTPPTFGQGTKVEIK

>  <pIC50>
7.96

$$$$
>  <binder>
191G10 (antibody, V domains shown) VH: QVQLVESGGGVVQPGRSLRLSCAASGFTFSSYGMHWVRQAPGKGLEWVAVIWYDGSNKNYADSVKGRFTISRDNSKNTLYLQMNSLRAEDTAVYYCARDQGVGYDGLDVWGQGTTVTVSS VL: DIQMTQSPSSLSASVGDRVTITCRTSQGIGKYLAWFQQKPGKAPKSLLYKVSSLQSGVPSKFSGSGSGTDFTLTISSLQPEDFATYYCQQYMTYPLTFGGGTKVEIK

>  <pIC50>
7.57

$$$$
>  <binder>
7F4 (antibody, V domains shown) VH: QLQLQESGPGLVKPSETLSLTCTVSGGSISRSSYYWGWIRQPPGKGLEWIGNIYYSGATYYNPSLKSRVTISVDTSTNQFSLKLSSVTAADTAVYYCARHSGSWSLDYWGQGTLVTVSS VL: DIQMTQSPSSLSASVGDRVTITCRTSQGIRNDLGWYQQKPGKAPKRLIYAASNLQSGVPSRFSGSGSGTEFTLTISSLQPEDFATYYCLQHSAYPLTFGGGTKVEIK

>  <pIC50>
8.59

$$$$
>  <binder>
197G3 (antibody, V domains shown) VH: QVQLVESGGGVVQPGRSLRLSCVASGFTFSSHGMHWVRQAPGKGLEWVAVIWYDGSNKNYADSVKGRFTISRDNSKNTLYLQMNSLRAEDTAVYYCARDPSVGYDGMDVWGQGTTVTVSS VL: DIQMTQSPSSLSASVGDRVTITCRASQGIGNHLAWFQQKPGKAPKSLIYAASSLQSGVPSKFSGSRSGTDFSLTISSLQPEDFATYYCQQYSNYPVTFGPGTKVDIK

>  <pIC50>
7.54

$$$$
>  <binder>
4A2 (antibody, V domains shown) VH: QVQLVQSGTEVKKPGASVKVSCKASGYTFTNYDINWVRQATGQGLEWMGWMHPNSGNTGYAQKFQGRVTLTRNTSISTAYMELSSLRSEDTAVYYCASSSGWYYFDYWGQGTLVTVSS VL: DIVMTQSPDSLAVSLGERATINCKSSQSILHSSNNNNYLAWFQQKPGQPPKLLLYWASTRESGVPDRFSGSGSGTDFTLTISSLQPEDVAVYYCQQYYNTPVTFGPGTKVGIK

>  <pIC50>
7.96

$$$$
>  <binder>
198G3 (antibody, V domains shown) VH: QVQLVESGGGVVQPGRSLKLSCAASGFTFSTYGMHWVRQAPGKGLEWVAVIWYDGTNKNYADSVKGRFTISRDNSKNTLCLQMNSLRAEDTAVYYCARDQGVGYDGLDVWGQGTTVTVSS VL: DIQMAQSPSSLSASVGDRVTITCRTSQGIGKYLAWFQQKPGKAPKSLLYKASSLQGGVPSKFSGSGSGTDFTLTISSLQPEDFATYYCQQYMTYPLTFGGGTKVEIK

>  <pIC50>
7.59

$$$$
>  <binder>
194A4 (antibody, V domains shown) VH: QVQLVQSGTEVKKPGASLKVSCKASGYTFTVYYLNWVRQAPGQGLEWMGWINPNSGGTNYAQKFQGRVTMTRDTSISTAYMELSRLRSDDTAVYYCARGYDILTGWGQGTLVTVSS VL: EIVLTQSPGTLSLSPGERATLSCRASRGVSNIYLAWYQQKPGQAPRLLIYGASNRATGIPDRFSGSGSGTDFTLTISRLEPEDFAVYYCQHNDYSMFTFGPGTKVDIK

>  <pIC50>
7.24

$$$$

Continue with the next binder.
Enquiry: Entry under review: 191G1 (antibody, V domains shown) VH: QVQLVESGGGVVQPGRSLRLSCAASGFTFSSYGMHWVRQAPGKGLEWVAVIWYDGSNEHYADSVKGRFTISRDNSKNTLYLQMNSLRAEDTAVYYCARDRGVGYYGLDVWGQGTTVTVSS VL: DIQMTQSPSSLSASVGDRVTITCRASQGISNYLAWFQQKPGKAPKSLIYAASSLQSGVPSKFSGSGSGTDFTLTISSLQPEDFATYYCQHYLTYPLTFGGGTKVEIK . Reported pIC50?
Return: 7.62
